The values you see were collected from patent US20200017592A1.

target-under-test: T1, human IL-36R extracellular domain expressed with a C-terminal myc-myc-hexahistidine tag (hIL-36R-MMH) (human, UniProt Q9HB29 20-337)
T1 construct: also called Human IL-36R-MMH; REGN2105
T1 sequence (Q9HB29 other isoform, or with tags, fused parts or gaps limits assumed): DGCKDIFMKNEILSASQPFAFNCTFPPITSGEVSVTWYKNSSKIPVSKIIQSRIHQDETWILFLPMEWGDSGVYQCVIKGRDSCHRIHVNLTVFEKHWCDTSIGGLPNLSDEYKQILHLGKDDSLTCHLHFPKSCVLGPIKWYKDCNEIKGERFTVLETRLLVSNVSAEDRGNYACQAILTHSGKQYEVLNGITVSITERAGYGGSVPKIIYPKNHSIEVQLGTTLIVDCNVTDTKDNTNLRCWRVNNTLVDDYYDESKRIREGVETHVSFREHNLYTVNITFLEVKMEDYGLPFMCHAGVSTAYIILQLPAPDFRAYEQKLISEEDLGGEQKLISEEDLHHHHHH
experiment-summary: SPR Biacore T200, mAb captured on anti-hFc, 37C, PBS-T pH 6.0 running buffer
Procedure: Additional binding experiments were performed to determine the effect of pH on the rate of dissociation of IL-36R bound to purified anti-IL-36R antibodies, which was determined using a real-time surface plasmon resonance biosensor using a Biacore T200 instrument. […] Kinetic dissociation constant (kd) were determined by fitting the real-time sensorgrams to a 1:1 binding model using Scrubber 2.0c curve fitting software. Binding dissociative half-lives (t_{1/2}) were calculated from kd as: […]
metric: koff (s⁻¹)
Report the value in s⁻¹ with no unit label.

- binder: "H4H14700P2 (antibody, human IgG4 S228P, kappa, V domains shown, Fully human anti-IL-36R antibody) VH: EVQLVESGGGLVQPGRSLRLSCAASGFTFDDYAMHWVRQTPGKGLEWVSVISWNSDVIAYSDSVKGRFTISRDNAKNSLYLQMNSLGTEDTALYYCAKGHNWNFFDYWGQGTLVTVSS VL: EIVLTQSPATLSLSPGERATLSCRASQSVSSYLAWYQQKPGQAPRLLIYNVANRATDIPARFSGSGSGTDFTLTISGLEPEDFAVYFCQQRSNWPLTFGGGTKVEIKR"
  metric: "koff"
  measured-number: 0.0035
- binder: "H4H14706P2 (antibody, human IgG4 S228P, kappa, V domains shown, Fully human anti-IL-36R antibody) VH: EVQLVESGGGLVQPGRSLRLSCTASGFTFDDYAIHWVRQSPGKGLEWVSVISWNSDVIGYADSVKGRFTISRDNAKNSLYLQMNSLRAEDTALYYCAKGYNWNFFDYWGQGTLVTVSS VL: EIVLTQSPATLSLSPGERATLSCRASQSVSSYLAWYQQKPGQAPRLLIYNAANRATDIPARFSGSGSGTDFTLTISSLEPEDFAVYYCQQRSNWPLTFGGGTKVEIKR"
  metric: "koff"
  measured-number: 0.00233

Please turn your attention to the following entry.
What value of koff has been recorded for this entry: H4H14757P (antibody, human IgG4 S228P, kappa, V domains shown, Fully human anti-IL-36R antibody) VH: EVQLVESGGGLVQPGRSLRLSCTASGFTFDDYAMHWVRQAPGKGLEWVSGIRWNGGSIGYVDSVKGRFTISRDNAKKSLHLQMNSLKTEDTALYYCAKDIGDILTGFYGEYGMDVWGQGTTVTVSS VL: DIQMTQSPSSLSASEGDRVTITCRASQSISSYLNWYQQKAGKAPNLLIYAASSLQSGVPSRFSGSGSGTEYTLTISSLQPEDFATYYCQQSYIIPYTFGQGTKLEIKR
0.0026
